Biological target: TtSlyDFL (full-length SlyD from Thermus thermophilus) (Thermus thermophilus, UniProt Q5SLE7)
Sequence (Q5SLE7 1-149): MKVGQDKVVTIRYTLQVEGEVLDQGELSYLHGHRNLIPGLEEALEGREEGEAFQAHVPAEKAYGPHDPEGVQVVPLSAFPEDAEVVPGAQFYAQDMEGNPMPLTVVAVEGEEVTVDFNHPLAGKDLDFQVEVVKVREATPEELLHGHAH
Test: ITC binding of peptides to full-length TtSlyD
Conditions: ITC two-site model, site 2 (FKBP domain) stoichiometry; 25 °C
No end group written: not given here.
assayReadout: N2
Give the value as a plain number.

Examples with answers:
[[record]]
substance = "GHQTRYWNPKMKPFI-NH2 [S2-minus1]"
assayvalue = 0.82

[[record]]
substance = "TRYANPKMKPFIFGA-NH2 [S2-W23A]"
assayvalue = 0.91

[[record]]
substance = "TRYWNAKMKPFIFGA-NH2 [S2-P25A]"
assayvalue = 1.02

[[record]]
substance = "KMKPFIFGARNKVHI-NH2 [S2-plus2]"
assayvalue = 0.75

[[record]]
substance = "VHFGHQTRYWNPKMK-NH2 [S2-minus2]"
assayvalue = 0.99


Ask: Please give measured N2 of the following entry: KAGVHFGHQTRYWNP-NH2 [S2-minus3]
Reply: 1.17

Ask: Please give measured N2 of the following entry: TRYWNPKMKEFIFGA-NH2 [S2-P29E]
Reply: 1.02

Ask: Please give measured N2 of the following entry: WNPKMKPFIFGARNK-NH2 [S2-plus1]
Reply: 0.94
